test: Solubility in water at 25° C. (saturated solution, residual mass after infrared drying); assay type: physicochemical; settings: water, 25° C.
READOUT_KIND: Solubility (amino acid) (g/kg)
Numbers only, in g/kg.

COMPOUND: CSCC[C@H](N)C(=O)O [Methionine, reference compound]
RESULT: 52.9
//
COMPOUND: N[C@@H](Cc1ccccc1)C(=O)O [Phenylalanine, reference compound]
RESULT: 26.8
//
COMPOUND: CC(C)[C@H](N)C(=O)O [Valine, reference compound]
RESULT: 58.5
//
COMPOUND: CC[C@H](C)[C@H](N)C(=O)O [Isoleucine, reference compound]
RESULT: 32.4

Let us examine a further case.
Need Solubility (amino acid) of CC(C)C[C@H](N)C(=O)O [Leucine, reference compound] , thanks.
22.1
